These measurements were taken from patent US10166218B2.

Listed here are compounds together with their documented pEC50.
- Test system: IL-6 (THP-1 cells)
- experiment: Inhibition of IL-6 in LPS-stimulated THP-1 human monocyte cells (HTRF)
- Type: cell-based
- condition.details: inhibition of IL-6 in LPS-stimulated THP-1 cells, HTRF, 10-point dose-response starting from 10 μM
pEC50: −log10 of the molar value.
outcome.measure: pEC50

>>> numeric_value("Fc1cccc(-c2cccc3[nH]c(-c4n[nH]c5cnc(-c6cncc(CN7CCC(F)(F)C7)c6)cc45)cc23)c1")
5.51
>>> numeric_value("CC(C)Nc1cncc(-c2cc3c(-c4cc5c(-c6ccccc6F)cccc5[nH]4)n[nH]c3cn2)c1")
5.51
>>> numeric_value("O=C(CC1CCNCC1)Nc1cncc(-c2cc3c(-c4cc5c(-c6ccccn6)cccc5[nH]4)n[nH]c3cn2)c1")
5.78
>>> numeric_value("CCC(=O)Nc1cncc(-c2cc3c(-c4cc5c(-c6cccc(F)c6)cccc5[nH]4)n[nH]c3cn2)c1")
5.54

---

- Tested on: SW480 colon cancer cells
- experiment: Cell viability assay (CellTiter-Blue) in SW480 colon cancer cells
- Format: cell-based
- condition.details: Homo sapiens, 96 h, four days, 10 μM, read-out: percent inhibition at 10 μM (given for EC50 of >10 μM)
outcome.measure: inhibition at 10 µM (%)

>>> numeric_value("O=C(CC1CCNCC1)Nc1cncc(-c2cc3c(-c4cc5c(-c6ccccn6)cccc5[nH]4)n[nH]c3cn2)c1 [Compound 621]")
29.3
>>> numeric_value("CC(C)(C)C(=O)Nc1cncc(-c2cc3c(-c4cc5c(-c6ccncc6)cccc5[nH]4)n[nH]c3cn2)c1 [Compound 120]")
32.2
>>> numeric_value("CC(C)(C)CC(=O)Nc1cncc(-c2cc3c(-c4cc5ccccc5[nH]4)n[nH]c3cn2)c1 [Compound 268]")
4.5
>>> numeric_value("Cn1cc(-c2cc3c(-c4cc5c(-c6ccncc6)cccc5[nH]4)n[nH]c3cn2)cn1 [Compound 600]")
45.1

---

- Test system: IL-6 (THP-1 cells)
- experiment: Inhibition of IL-6 in LPS-stimulated THP-1 human monocyte cells (HTRF)
- Format: cell-based
- condition.details: inhibition of IL-6 in LPS-stimulated THP-1 cells, HTRF, 10-point dose-response starting from 10 μM
Recorded EC50, one value per entry.
outcome.measure: EC50 (nM)

>>> numeric_value("Cn1cc(-c2cc3c(-c4cc5c(-c6ccncc6)cccc5[nH]4)n[nH]c3cn2)cn1 [Compound 600]")
44
>>> numeric_value("CC(C)CC(=O)Nc1cncc(-c2cc3c(-c4cc5c(N6CCCCC6)cccc5[nH]4)n[nH]c3cn2)c1 [Compound 170]")
4290
>>> numeric_value("Nc1cncc(-c2cc3c(-c4cc5c(-c6ccccn6)cccc5[nH]4)n[nH]c3cn2)c1 [Compound 143]")
549
>>> numeric_value("Cc1ncc(-c2cc3c(-c4cc5ccccc5[nH]4)n[nH]c3cn2)n1C [Compound 681]")
954

---

- System: IL-6 (THP-1 cells)
- experiment: Inhibition of IL-6 in LPS-stimulated THP-1 human monocyte cells (HTRF)
- Assay type: cell-based
- condition.details: inhibition of IL-6 in LPS-stimulated THP-1 cells, HTRF, 10-point dose-response starting from 10 μM
pEC50: −log10 of the molar value.
outcome.measure: pEC50

>>> numeric_value("CCC(=O)Nc1cncc(-c2cc3c(-c4cc5c(-c6cccnc6)cccc5[nH]4)n[nH]c3cn2)c1")
7.13
>>> numeric_value("CC(C)CC(=O)Nc1cncc(-c2cc3c(-c4cc5c(-c6ccc(F)cc6)cccc5[nH]4)n[nH]c3cn2)c1")
5.29
>>> numeric_value("CC(C)C(=O)Nc1cncc(-c2cc3c(-c4cc5c(N6CCN(C)CC6)cccc5[nH]4)n[nH]c3cn2)c1")
6.12
>>> numeric_value("CS(=O)(=O)NCc1cc(F)cc(-c2cccc3[nH]c(-c4n[nH]c5cnc(-c6cncc(CN7CCC(F)(F)C7)c6)cc45)cc23)c1")
6.32
>>> numeric_value("Fc1ccc(-c2cccc3[nH]c(-c4n[nH]c5cnc(-c6cncnc6)cc45)cc23)cc1")
5.02
>>> numeric_value("Nc1cncc(-c2cc3c(-c4cc5ncccc5[nH]4)n[nH]c3cn2)c1")
6.39
